Molecular target: T1, mouse IL-18 receptor alpha (mouse, UniProt Q61098 20-326, limits assumed)
T1 construct: also called Mouse IL18Ra; mouse IL-18R alpha
T1 sequence (looked up): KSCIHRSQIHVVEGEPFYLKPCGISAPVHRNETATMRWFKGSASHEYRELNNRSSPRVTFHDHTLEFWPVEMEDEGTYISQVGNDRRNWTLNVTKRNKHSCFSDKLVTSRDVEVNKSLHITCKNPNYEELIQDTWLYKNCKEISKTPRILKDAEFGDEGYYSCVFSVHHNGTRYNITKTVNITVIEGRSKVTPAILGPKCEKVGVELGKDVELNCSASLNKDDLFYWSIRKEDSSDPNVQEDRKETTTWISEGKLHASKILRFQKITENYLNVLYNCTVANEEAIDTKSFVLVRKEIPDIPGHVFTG
Assay: Octet BLI, monoFc scaffold
Each entry below carries its reported pKd.
Reminder that pKd is minus the log10 of a molar concentration.

Study these solved cases before continuing.
mouse IL-18 G3V/L59R on monoFc scaffold (Fc fusion, not shown: small tags and cut ends) NFVRLHSTTAVIRNINDQVLFVDKRQPVFEDMTDIDQSASEPQTRLIIYMYKDSEVRGRAVTLSVKDSKMSTLSSKNKIISFEEMDPPENIDDIQSDLIFFQKRVPGHNKMEFESSLYEGHFLASQKEDDAFKLILKKKDENGDKSVMFTLTNLHQSNGGPSVFLFPPKPKDTLMISRTPEVTCVVVDVSHEDPEVKFNWYVDGVEVHNAKTKPREEQYNSTYRVVSVLTVLHQDWLNGKEYKCKVSNKALPAPIEKTISKAKGQPREPQVYTLPPSREEMTKNQVNLTCLVKGFYPSDIAVEWESNGQPENNYKTTPPVLDSDGSFFLNSTLTVDKSRWQQGNVFSCSVMHEALHNHYTQKSLSLS : 7.29
mouse IL-18 G3V/H6K/L59K on monoFc scaffold (Fc fusion, not shown: small tags and cut ends) NFVRLKSTTAVIRNINDQVLFVDKRQPVFEDMTDIDQSASEPQTRLIIYMYKDSEVRGKAVTLSVKDSKMSTLSSKNKIISFEEMDPPENIDDIQSDLIFFQKRVPGHNKMEFESSLYEGHFLASQKEDDAFKLILKKKDENGDKSVMFTLTNLHQSNGGPSVFLFPPKPKDTLMISRTPEVTCVVVDVSHEDPEVKFNWYVDGVEVHNAKTKPREEQYNSTYRVVSVLTVLHQDWLNGKEYKCKVSNKALPAPIEKTISKAKGQPREPQVYTLPPSREEMTKNQVNLTCLVKGFYPSDIAVEWESNGQPENNYKTTPPVLDSDGSFFLNSTLTVDKSRWQQGNVFSCSVMHEALHNHYTQKSLSLS : 7.62

Item under review: mouse IL-18 G3V, H6K, K52A on monoFc scaffold (Fc fusion, not shown: small tags and cut ends) NFVRLKSTTAVIRNINDQVLFVDKRQPVFEDMTDIDQSASEPQTRLIIYMYADSEVRGLAVTLSVKDSKMSTLSSKNKIISFEEMDPPENIDDIQSDLIFFQKRVPGHNKMEFESSLYEGHFLACQKEDDAFKLILKKKDENGDKSVMFTLTNLHQSNGGPSVFLFPPKPKDTLMISRTPEVTCVVVDVSHEDPEVKFNWYVDGVEVHNAKTKPREEQYNSTYRVVSVLTVLHQDWLNGKEYKCKVSNKALPAPIEKTISKAKGQPREPQVYTLPPSREEMTKNQVNLTCLVKGFYPSDIAVEWESNGQPENNYKTTPPVLDSDGSFFLNSTLTVDKSRWQQGNVFSCSVMHEALHNHYTQKSLSLS . Reported pKd?
8.31

Item under review: mouse IL-18 G3T, H6K, K52A on monoFc scaffold (Fc fusion, not shown: small tags and cut ends) NFTRLKSTTAVIRNINDQVLFVDKRQPVFEDMTDIDQSASEPQTRLIIYMYADSEVRGLAVTLSVKDSKMSTLSSKNKIISFEEMDPPENIDDIQSDLIFFQKRVPGHNKMEFESSLYEGHFLACQKEDDAFKLILKKKDENGDKSVMFTLTNLHQSNGGPSVFLFPPKPKDTLMISRTPEVTCVVVDVSHEDPEVKFNWYVDGVEVHNAKTKPREEQYNSTYRVVSVLTVLHQDWLNGKEYKCKVSNKALPAPIEKTISKAKGQPREPQVYTLPPSREEMTKNQVNLTCLVKGFYPSDIAVEWESNGQPENNYKTTPPVLDSDGSFFLNSTLTVDKSRWQQGNVFSCSVMHEALHNHYTQKSLSLS . Reported pKd?
7.37

Item under review: mouse IL-18 G3V, K52A on monoFc scaffold (Fc fusion, not shown: small tags and cut ends) NFVRLHSTTAVIRNINDQVLFVDKRQPVFEDMTDIDQSASEPQTRLIIYMYADSEVRGLAVTLSVKDSKMSTLSSKNKIISFEEMDPPENIDDIQSDLIFFQKRVPGHNKMEFESSLYEGHFLACQKEDDAFKLILKKKDENGDKSVMFTLTNLHQSNGGPSVFLFPPKPKDTLMISRTPEVTCVVVDVSHEDPEVKFNWYVDGVEVHNAKTKPREEQYNSTYRVVSVLTVLHQDWLNGKEYKCKVSNKALPAPIEKTISKAKGQPREPQVYTLPPSREEMTKNQVNLTCLVKGFYPSDIAVEWESNGQPENNYKTTPPVLDSDGSFFLNSTLTVDKSRWQQGNVFSCSVMHEALHNHYTQKSLSLS . Reported pKd?
8.05
